Tested on: SR leukemia
experiment_notes: NCI tumour cell line growth inhibition, 48 h
recorded_metric: TGI

Answered examples (2):
Quick one: give measured TGI for COc1cc(OC)cc(-c2ccc(-c3ccc(C(=N)N)cn3)s2)c1
10.9 µM

Quick one: give measured TGI for O=C1c2ccccc2C(=O)c2sc(Nc3cc(Cl)ccc3Cl)nc21
> 100 µM

New cases:
Quick one: give measured TGI for O=C(Oc1ccc2c(c1)CN(Cc1ccccc1)CO2)c1ccccc1
69.2 µM

Quick one: give measured TGI for O=c1c2cc(I)ccc2nc(-c2cccs2)n1O
> 100 µM

Quick one: give measured TGI for CCOC(=O)c1csc(NC(=O)C(C)N2CCOCC2)n1 (stereo not drawn)
> 100 µM

Quick one: give measured TGI for CCCCCCCCCCCCCCCC(=O)OCC1OC(n2cc(F)c(=O)[nH]c2=O)C(NC(=O)N(CCCl)N=O)C(O)C1O (stereo not drawn)
5.8 µM

Quick one: give measured TGI for O=C(O)/C=C/c1ccncc1
> 100 µM

Quick one: give measured TGI for CN(C)c1ccc(C2CC(C)(O)Oc3cc4c(cc32)OCO4)cc1 (stereo not drawn)
> 100 µM

Quick one: give measured TGI for Cc1ccnc(Nc2ccc([N+](=O)[O-])c(NCCN3CCOCC3)n2)c1
63.5 µM

Quick one: give measured TGI for CC(C)=CCCC1(C)C2COC(=O)C21 (stereo not drawn)
> 100 µM

Quick one: give measured TGI for CC1(Cl)CC(C)(/C=C/Cl)C(Cl)CC1Cl (stereo not drawn)
44.6 µM

###

Listing of recorded TGI by entry.
Test system: SF-268 CNS
experiment_notes: NCI tumour cell line growth inhibition, 48 h

Quick one: give measured TGI for O=C1C2CC[C@@H]3C(=O)C(Cl)(Cl)[C@@H]3CCC2C1(Cl)Cl (stereo not given in full)
> 100 µM

Quick one: give measured TGI for Cc1ncc(CSC(=N)N)n1Cc1ccccc1
> 100 µM

Quick one: give measured TGI for COC(=O)c1ccc2[nH]c(O)c(C(=Nc3ccc(N(C)C(=O)CN4CCN(C)CC4)cc3)c3ccccc3)c2c1
7.94 µM

Quick one: give measured TGI for c1ccc(-c2c(-c3[nH]c4ccccc4c3-c3ccccc3)[nH]c3ccccc23)cc1
21.5 µM

New cases:
Quick one: give measured TGI for CNCc1cccc2c1OCCOCCOCCC(C)S(=O)(=O)c1ccc(cc1)-c1cnc(N)c(n1)C(=O)N2 (stereo not given)
3.33 µM

Quick one: give measured TGI for Cn1c(NC(=O)NC23CC4CC(CC(C4)C2)C3)nc2ccccc21
> 100 µM

Quick one: give measured TGI for C=C(Cn1c2ccccc2c(=O)c2ccccc21)c1ccc(C(=O)Nc2ccccc2N)cc1
> 100 µM

Quick one: give measured TGI for Cc1cc(=O)n2nc(CSc3nnc(Sc4cc(O)ccc4O)s3)sc2n1
> 100 µM

Quick one: give measured TGI for CN(C)C(=O)Oc1ccc(C(=S)Nc2ccccc2)cc1
> 100 µM

Quick one: give measured TGI for CC(=O)O[C@H]1C(=O)[C@@]2(C)[C@H]([C@H](OC(=O)c3ccco3)[C@]3(O)C[C@H](OC(=O)[C@H](O)[C@@H](NC(=O)c4ccccc4)c4ccccc4)C(C)=C1C3(C)C)[C@]1(OC(C)=O)CO[C@@H]1C[C@@H]2O
> 25 µM

Quick one: give measured TGI for CCOC(=O)c1cn(CC)c2ccc3c(c2c1=O)S(=O)(=O)C=C3
> 100 µM

Quick one: give measured TGI for COc1cc(N(CCC#N)CCC#N)ccc1/C(N=Nc1ccc(C(=O)O)cc1)=N/NC(=O)c1cc(Br)ccc1O
119 µg/mL

Quick one: give measured TGI for CSc1nc[nH]c1C(N)=S
> 100 µM

Quick one: give measured TGI for CC(=O)[C@]1(O)Cc2c(O)c3c(c(O)c2[C@@H](OC2CC(N)C(O)C(C)O2)C1)C(=O)c1c(OCc2ccccc2)cccc1C3=O (stereo not given in full)
11.7 µM

Quick one: give measured TGI for CC(C)=CC(=O)c1c(C(=O)O)nc2ccccc2[n+]1[O-]
> 100 µM

Quick one: give measured TGI for Clc1ccc2c(NCCCN3CCN(c4nc(N5CCOCC5)nc5ccccc45)CC3)ccnc2c1
5.51 µM

Quick one: give measured TGI for CC[C@@]12CCC(=S)N(CCSc3ccccc3)[C@@H]1c1c(n(S(=O)(=O)c3ccc(OC)cc3)c3ccccc13)CC2
> 100 µM

Quick one: give measured TGI for O=C(CC1=Nc2nnc(-c3nnc4n3C(=O)C(CC(=O)C3CC3)=N4)n2C1=O)C1CC1
> 100 µM

Quick one: give measured TGI for O=C1CCS/C(=N/S(=O)(=O)c2ccc(N3N=C4c5ccccc5CC4C3c3cccs3)cc2)N1Cc1ccccc1 (stereo not given)
> 100 µM

Quick one: give measured TGI for COc1ccc(CC[N+]2(C)COc3cc4oc(=O)cc(C)c4cc3C2)cc1OC (stereo not given)
> 100 µM

Quick one: give measured TGI for CC1CC(C)C(C(O)CC2CC(=O)N(c3ccccc3)C(=O)C2)C(O)C1 (stereo not given)
> 100 µM

Quick one: give measured TGI for N#CCCN(CCC#N)c1ccc(C=Nc2ccc(F)cc2)cc1
> 100 µM

Quick one: give measured TGI for N#CCC1(n2cc(-c3ncnc4[nH]ccc34)cn2)CN(C2CCN(C(=O)c3ccnc(C(F)(F)F)c3F)CC2)C1
> 100 µM

###

Tested on: NCI-H522 lung
experiment_notes: NCI tumour cell line growth inhibition, 48 h
recorded_metric: TGI

Answered examples (10):
Quick one: give measured TGI for COc1cc(CCc2ccc(OC(C)=O)cc2)cc(OC)c1OC
> 100 µM

Quick one: give measured TGI for NC(N)=NCCCC(NC(=O)c1c2ccccc2nc2ccccc12)C(=O)O (stereo not drawn)
> 100 µM

Quick one: give measured TGI for CC1=CCN(c2ccccn2)OC1c1ccccc1 (stereo not drawn)
> 100 µM

Quick one: give measured TGI for COC(=O)C(=O)C(C(=O)C(=O)Nc1ccc(C)c(C)c1)c1nc2ccc([N+](=O)[O-])cc2[nH]c1=O (stereo not drawn)
> 100 µM

Quick one: give measured TGI for C(=C\c1c2oc(-c3ccccc3)cc(-c3ccccc3)c-2c2ccccc12)/C=C1\c2ccccc2-c2c(-c3ccccc3)cc(-c3ccccc3)[o+]c21
> 100 µM

Quick one: give measured TGI for COc1ccc2c(c1)CC[C@@H]1C2CC[C@]2(C)C(=C=CP(=O)(O)O)CCC12 (stereo partly drawn)
> 100 µM

Quick one: give measured TGI for Fc1ccc(-c2nn3c(COc4ccc(Cl)cc4)nnc3s2)cc1Oc1ccccc1
> 66.8 µM

Quick one: give measured TGI for Cc1nc(-n2nc(-c3ccccc3)cc2-c2ccccc2)sc1C(=O)/C=C/c1ccccc1
> 100 µM

Quick one: give measured TGI for COc1ccc(CC[N+]2(C)COc3cc4oc(=O)cc(C)c4cc3C2)cc1OC (stereo not drawn)
> 100 µM

Quick one: give measured TGI for NC(N)=N/N=C/c1c(-c2ccncc2)nc2sc(Cl)cn12
> 28.5 µM

New cases:
Quick one: give measured TGI for Cn1c(=O)c2c(nc(N/N=C3/SCC(=O)N3Cc3ccccc3)n2C)n(C)c1=O
> 100 µM

Quick one: give measured TGI for O=C(O)Cn1ccc(=O)c2cc([N+](=O)[O-])ccc21
> 100 µM

Quick one: give measured TGI for COc1ccc(C(=O)O/N=C2/CCCCC2CN(C)C)cc1 (stereo not drawn)
> 100 µM

Quick one: give measured TGI for O=c1[nH]c2ccc([N+](=O)[O-])c(Cl)c2c2ccccc12
11.7 µM

###

Test system: DU-145 prostate
experiment_notes: NCI tumour cell line growth inhibition, 48 h
Listing of recorded TGI by entry.
Give the quantity in µM, number only.

Answered examples (2):
Quick one: give measured TGI for COc1ccc(/C(C)=C(\c2ccc(Cl)cc2)c2ccc(OCCN3CCCCCC3)cc2)cc1F
15.6

Quick one: give measured TGI for COc1c(O)c2c3c(c1OC)-c1ccccc1CC3N(S(=O)(=O)c1ccc(C)cc1)CC2 (stereo not given)
6.41

New cases:
Quick one: give measured TGI for CC1=C2[C@@H](CC1)[C@]1(C)O[C@@](C3CC3)(C[C@H]1OC(=O)CO)[C@H]2OC(=O)/C=C/c1ccccc1
30.9

Quick one: give measured TGI for CCN1CCN(c2nc(NNC(=O)c3ccccc3)nc(N3CCN(C(c4ccccc4)c4ccccc4)CC3)n2)CC1
26.5

###

Test system: SK-MEL-5 melanoma
experiment_notes: NCI tumour cell line growth inhibition, 48 h
Listing of recorded TGI by entry.

Answered examples (3):
Quick one: give measured TGI for COC(=O)C(NC(=O)c1ccccc1)C(c1c(O)cc(O)cc1O)P(=O)(OC)OC (centres undefined)
> 100 µM

Quick one: give measured TGI for COC1OC(C(=O)O)C2OC(C)(C)OC12 (centres undefined)
> 100 µM

Quick one: give measured TGI for CC(C)[C@@H]1NC(=O)[C@@H]2N=C(O[C@H]2C)[C@H](C(C)C)NC(=O)C2N=C1O[C@H]2C
> 100 µM

We next turn to a different molecule, shown below.
Quick one: give measured TGI for C#CC#CC#CC#CC#CC#CC#CC#CC[C@@H]1OC[C@@H](COC(=O)O[C@@H](C(=O)O[C@H]2C[C@@]3(O)[C@@H](OC(=O)c4ccccc4)[C@@H]4[C@]5(OC(C)=O)CO[C@@H]5C[C@H](O)[C@@]4(C)C(=O)[C@H](OC(C)=O)C(=C2C)C3(C)C)[C@@H](NC(=O)c2ccccc2)c2ccccc2)O1
> 9.15 µM
